Tested on: Escherichia coli TOP10;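 also: peptides expressed intracellularly from a pBAD plasmid library in pooled LB shake-flask culture, induced with 0.3% L-arabinose, DNA abundance read by NGS, three biological replicates, DESeq2 with apeglm shrinkage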
Assay: shrunken log2 fold change of peptide-encoding DNA abundance (4.5 h post-induction vs induction); higher = less antimicrobial activity (less host growth inhibition)
Conditions: time post-induction: 4.5 h; library: site-saturation at positions 5, 18, 19, 20
experimental-readout: shrunken log2 fold change
Just the number.

stdin: Give its shrunken log2 fold change value. Item: RRIRVRPPRLPRPRPRPSFYPRP
stdout: -0.872

stdin: What value of measured shrunken log2 fold change is listed for RRIRCRPPRLPRPRPRPMDFPRP ?
stdout: -0.151

stdin: I have this sequence here, RRIRHRPPRLPRPRPRPYDAPRP , and I need its recorded shrunken log2 fold change.
stdout: -0.271

stdin: // returns reported shrunken log2 fold change for input RRIRCRPPRLPRPRPRPETLPRP
stdout: -0.193

stdin: Which shrunken log2 fold change is reported for this sequence? RRIRMRPPRLPRPRPRPWFEPRP
stdout: -0.13

stdin: Entry RRIRNRPPRLPRPRPRPMIVPRP : reported shrunken log2 fold change = ?
stdout: -0.017

stdin: Fill in the blank: the reported shrunken log2 fold change of RRIRCRPPRLPRPRPRPSPMPRP is ____.
stdout: 0.0865

stdin: Look at this sequence and give its reported shrunken log2 fold change. RRIRHRPPRLPRPRPRPIDNPRP
stdout: -0.359

stdin: Can you share its shrunken log2 fold change? I mean this sequence: RRIRNRPPRLPRPRPRPRHHPRP
stdout: -0.246

stdin: Reported shrunken log2 fold change, sequence RRIRQRPPRLPRPRPRPVTKPRP : ____
stdout: -0.0142

stdin: Entry under review: RRIRLRPPRLPRPRPRPGSMPRP . Reported shrunken log2 fold change?
stdout: -0.192

stdin: # lookup: shrunken log2 fold change of RRIRERPPRLPRPRPRPNCFPRP
stdout: -0.195

stdin: Give the measured shrunken log2 fold change of RRIRGRPPRLPRPRPRPCIKPRP .
stdout: 0.268

stdin: What shrunken log2 fold change value was documented for this sequence, RRIRSRPPRLPRPRPRPATGPRP ?
stdout: 0.156

stdin: Look up shrunken log2 fold change for this sequence: RRIRHRPPRLPRPRPRPMEDPRP
stdout: 0.0325

Source listed as the supplement of paper PMC9112550.
